Data origin: the supplement of paper PMC4932681

Recorded relative IC50, one value per entry.
- System: T-47D
- test_summary: relative IC50 (midpoint of fitted logistic curve, plateau may be below 50% inhibition; CellTiter-Glo viability); higher = less potent
- condition_parameters: 4-OH-tamoxifen in medium 1 µM; 72 h
measured_endpoint: relative IC50

| molecule | target_or_test_system | data_value |
| --- | --- | --- |
| CS(=O)(=O)N1CCN(Cc2cc3nc(-c4cccc5[nH]ncc45)nc(N4CCOCC4)c3s2)CC1 | T-47D | 884 nM |
| O=NN(CCCl)C(=O)NCCCl | T-47D | > 10000 nM |
| CC(C)(C)NC(=O)[C@H]1CC[C@H]2[C@@H]3CC[C@H]4NC(=O)C=C[C@]4(C)[C@H]3CC[C@]12C [Finasteride] | T-47D | > 10000 nM |
| CC(C)(C)c1cc(NC(=O)Nc2ccc(-c3cn4c(n3)sc3cc(OCCN5CCOCC5)ccc34)cc2)no1 | T-47D | > 1000 nM |
| O=C(/C=C/c1cccc(S(=O)(=O)Nc2ccccc2)c1)NO | T-47D | 857 nM |
| CC/C(=C(\c1ccc(O)cc1)c1ccc(OCCN(C)C)cc1)c1ccccc1 [4-hydroxytamoxifen] | T-47D | 3900 nM |
| CCCCC/C=C/C=C1/C(=O)C=C[C@@H]1C/C=C\CCCC(=O)O [15D-PGJ2] | T-47D | > 800 nM |
| C#Cc1cccc(Nc2ncnc3cc(OCCOC)c(OCCOC)cc23)c1 | T-47D | > 10000 nM |

* * *

- Test system: MCF-7 Tam1
- test_summary: viability inhibition at highest dose (% inhibition); higher = more growth inhibition
- condition_parameters: 4-OH-tamoxifen in medium 1 µM; 72 h
Friendly reminder: viability inhibition at highest dose below -3 is condition met, at or above is condition not met.

| compound | discrete_label |
| --- | --- |
| O=P(O)(NCCCl)NCCCl [Ifosfamide mustard] (drug 10000 nM) | condition met |
| Cn1cnc2c(F)c(Nc3ccc(Br)cc3F)c(C(=O)NOCCO)cc21 [MEK-162 (ARRY-162)] (drug 1000 nM) | condition not met |
| NC(=O)c1cccc2cn(-c3ccc([C@@H]4CCCNC4)cc3)nc12 [MK-4827] (drug 10000 nM) | condition met |
| Oc1nc(-c2ccc(C(F)(F)F)cc2)nc2c1CSCC2 [XAV-939] (drug 10000 nM) | condition met |
| C/C(=C\c1csc(C)n1)[C@@H]1C[C@@H]2O[C@]2(C)CCC[C@H](C)[C@H](O)[C@@H](C)C(=O)C(C)(C)[C@@H](O)CC(=O)N1 [Ixabepilone] (drug 1000 nM) | condition met |
| C1CN1c1nc(N2CC2)nc(N2CC2)n1 [Triethylenemelamine] (drug 10000 nM) | condition met |
| CO[C@@H](C(=O)N1Cc2[nH]nc(NC(=O)c3ccc(N4CCN(C)CC4)cc3)c2C1)c1ccccc1 (drug 10000 nM) | condition not met |

* * *

- Tested on: MCF-7
- test_summary: viability inhibition at highest dose (% inhibition); higher = more growth inhibition
- condition_parameters: 4-OH-tamoxifen in medium 0 µM; 72 h
Response field label takes yes when viability inhibition at highest dose is strictly below 20 and no in all other cases.

| molecule | target_or_test_system | discrete_label |
| --- | --- | --- |
| S=c1[nH]cnc2nc[nH]c12 [Mercaptopurine] (drug 10000 nM) | MCF-7 | yes |
| C=CC(=O)N1CCC[C@@H](n2nc(-c3ccc(Oc4ccccc4)cc3)c3c(N)ncnc32)C1 (drug 1000 nM) | MCF-7 | yes |
| NCC(=O)CCC(=O)O [Aminolevulinic acid] (drug 10000 nM) | MCF-7 | yes |
| O=C1CCC(N2C(=O)c3ccccc3C2=O)C(=O)N1 (stereo unspecified) [Thalidomide] (drug 10000 nM) | MCF-7 | yes |
| CO[C@@]12[C@H](COC(N)=O)C3=C(C(=O)C(C)=C(N)C3=O)N1C[C@@H]1N[C@@H]12 [Mitomycin C] (drug 10000 nM) | MCF-7 | yes |
| CC(C)C[C@H](NC(=O)[C@H](CCc1ccccc1)NC(=O)CN1CCOCC1)C(=O)N[C@@H](Cc1ccccc1)C(=O)N[C@@H](CC(C)C)C(=O)[C@@]1(C)CO1 [Carfilzomib] (drug 1000 nM) | MCF-7 | no |
| Cn1c(=O)c(F)c(Nc2ccc(I)cc2F)c2c(=O)n(C[C@@H](O)CO)cnc21 [TAK-733] (drug 1000 nM) | MCF-7 | yes |
| CCCCC/C=C/C=C1/C(=O)C=C[C@@H]1C/C=C\CCCC(=O)O [15D-PGJ2] (drug 800 nM) | MCF-7 | yes |
| C[C@@H]1C=C2C(=O)O[C@@H]3CC[C@H](C1)[C@]23O [Galiellalactone] (drug 50000 nM) | MCF-7 | no |
| CN1CCN(CCOc2cc(OC3CCOCC3)c3c(Nc4c(Cl)ccc5c4OCO5)ncnc3c2)CC1 [Saracatinib] (drug 10000 nM) | MCF-7 | no |
| Cc1cn(-c2cc(NC(=O)c3ccc(C)c(Nc4nccc(-c5cccnc5)n4)c3)cc(C(F)(F)F)c2)cn1 [Nilotinib] (drug 10000 nM) | MCF-7 | yes |
| CCOc1cc2ncc(C#N)c(Nc3ccc(OCc4ccccn4)c(Cl)c3)c2cc1NC(=O)/C=C/CN(C)C [Neratinib] (drug 1000 nM) | MCF-7 | yes |
| Cc1ccc(C(=O)N(CCCN)[C@@H](c2oc3cc(Cl)ccc3c(=O)c2Cc2ccccc2)C(C)C)cc1 (drug 100 nM) | MCF-7 | yes |
| CO[C@H]1C[C@@H]2CC[C@@H](C)[C@@](O)(O2)C(=O)C(=O)N2CCCC[C@H]2C(=O)O[C@H]([C@H](C)C[C@@H]2CC[C@@H](OCCO)[C@H](OC)C2)CC(=O)[C@H](C)/C=C(\C)[C@@H](O)[C@@H](OC)C(=O)[C@H](C)C[C@H](C)/C=C/C=C/C=C/1C [Everolimus] (drug 100 nM) | MCF-7 | no |
| CC/C(=C(\c1ccc(O)cc1)c1ccc(OCCN(C)C)cc1)c1ccccc1 [4-hydroxytamoxifen] (drug 10000 nM) | MCF-7 | no |
| Nc1ccn([C@@H]2O[C@H](CO)[C@@H](O)[C@@H]2O)c(=O)n1 [Cytarabine] (drug 10000 nM) | MCF-7 | no |
| CC[C@@H]1C(=O)N(C)c2cnc(Nc3ccc(C(=O)N[C@H]4CC[C@H](N5CCN(CC6CC6)CC5)CC4)cc3OC)nc2N1C(C)C [Volasertib (BI 6727)] (drug 1000 nM) | MCF-7 | no |
| C[C@]12C=CC(=O)C=C1CC[C@@H]1[C@@H]2[C@@H](O)C[C@@]2(C)[C@H]1CC[C@]2(O)C(=O)CO [Prednisolone] (drug 10000 nM) | MCF-7 | yes |
| Cn1cc(C2=Nc3cc(NC(=O)C(N)C4CCCCC4)cc4c3C2=CNNC4=O)cn1 (stereo unspecified) (drug 10000 nM) | MCF-7 | no |
| Cc1ccc(C(=O)Nc2ccc(CN3CCN(C)CC3)c(C(F)(F)F)c2)cc1C#Cc1cnc2cccnn12 (drug 1000 nM) | MCF-7 | yes |
| C[C@@H]1CCN(C(=O)CC#N)C[C@@H]1N(C)c1ncnc2[nH]ccc12 [Tofacitinib (Tasocitinib)] (drug 5000 nM) | MCF-7 | yes |
| CN1CCc2c(c3ccccc3n2Cc2ccc(C(=O)NO)cc2)C1 [Tubastatin A] (drug 10000 nM) | MCF-7 | yes |
| O=C1NC(=O)[C@@H](c2cn3c4c(cccc24)CCC3)[C@@H]1c1c[nH]c2ccccc12 [Tivatinib (ARQ 197)] (drug 1000 nM) | MCF-7 | no |
| Nc1ncn([C@@H]2O[C@H](CO)[C@@H](O)[C@H]2O)c(=O)n1 [Azacitidine] (drug 10000 nM) | MCF-7 | no |
| CC[C@H](Nc1ncnc2[nH]cnc12)c1nc2cccc(F)c2c(=O)n1-c1ccccc1 [CAL-101] (drug 10000 nM) | MCF-7 | no |
| C[C@]12O[C@H](C[C@]1(O)CO)n1c3ccccc3c3c4c(c5c6ccccc6n2c5c31)CNC4=O [Lestaurtinib] (drug 1000 nM) | MCF-7 | no |
